target: Steroidogenic factor 1 (Homo sapiens, UniProt Q13285); assay: blockers of SF-1 LBD reporter transcription – cell-based, CHO-K1, Gal4-SF-1 LBD, luciferase luminescence, dose response (AID 600)
Sequence (Q13285 whole entry, the tested form may be a part): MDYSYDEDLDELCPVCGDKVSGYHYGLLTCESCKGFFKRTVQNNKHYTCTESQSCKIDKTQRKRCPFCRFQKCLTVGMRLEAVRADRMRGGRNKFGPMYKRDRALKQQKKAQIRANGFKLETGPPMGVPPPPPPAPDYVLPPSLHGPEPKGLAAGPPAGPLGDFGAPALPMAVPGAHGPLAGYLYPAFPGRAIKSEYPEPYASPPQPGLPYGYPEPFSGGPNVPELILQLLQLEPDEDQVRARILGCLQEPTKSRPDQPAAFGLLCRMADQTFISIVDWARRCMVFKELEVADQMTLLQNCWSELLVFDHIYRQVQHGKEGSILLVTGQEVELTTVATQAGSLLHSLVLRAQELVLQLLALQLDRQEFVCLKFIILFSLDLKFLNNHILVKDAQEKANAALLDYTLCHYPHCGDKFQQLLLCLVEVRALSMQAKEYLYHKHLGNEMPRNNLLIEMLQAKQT
Exercise: for every item that follows, state its recorded pIC50.
Give bare numbers, as −log10 of the molar value.

Here is how some compounds turned out for pIC50.
(Q) Record CCOc1ccc(-c2nnc(-c3ccco3)o2)cc1 : what is its pIC50 with Steroidogenic factor 1 (Homo sapiens, UniProt Q13285)?
(A) 5.28

(Q) Entry to check: COc1cc(CN2CCN(c3cc(C)ccc3C)CC2)ccc1O
(A) 5.39

(Q) # repeat for CCCN1C=CC(=C2C(=O)c3ccccc3C2=O)C=C1
(A) 6.44

(Q) Okay, and CCOC(=O)C(C)Oc1cccc2c(=O)n(CC(=O)Nc3ccc4c(c3)OCCO4)ccc12 (centres undefined) ?
(A) 6.08

(Q) Same read-out for COCCn1c(C)cc(C(=O)COC(=O)c2[nH]nc3ccccc23)c1C ?
(A) 5.01

(Q) One more compound: O=C(Nc1nc2ccccc2[nH]1)c1ccccc1F
(A) 5.81

(Q) Another compound: COC(=O)/C(=C1/Oc2cc(C)oc(=O)c2S1)C(F)(F)F
(A) 5.33

(Q) How about this compound: COc1ccc(-c2cc3nc4n(c(=O)c3s2)CCOC4)cc1
(A) 5.17

Please state pIC50 for every compound in the list that follows.
1. Oc1c(CN2CCN(c3ccccn3)CC2)cc(Cl)c2cccnc12
2. Cn1ncnc2c(=O)n(C)c(=O)nc1-2
3. COc1ccc(CCNc2nnc(Sc3nnnn3-c3ccccc3)s2)cc1OC
4. CCOC(=O)C1CCN(c2ncnc3c2cnn3-c2ccc(Cl)cc2)CC1
5. CCc1nn2cc(-c3ccccc3)nc2s1
6. COC(=O)C1C(=CN2CCCc3ccccc32)NC(=O)NC1c1ccc(F)cc1 (centres undefined)
7. COc1cc(CN=O)ccc1OCc1ccc(C(=O)O)cc1
8. Cc1ccc(-c2nc3nc4ccccc4nc3n2Cc2ccco2)cc1

(A)
[5.12, 6.12, 5.29, 5.47, 5.36, 5.27, 5.94, 5.16]

Your task in this section: give pIC50 for each listed record.
1. C[S+]([O-])c1nc(-c2ccc(Br)cc2)cc(-c2ccccc2)c1C#N (centres undefined)
2. CCCS(=O)(=O)c1nnnn1-c1cccc(OC)c1

(A)
1. 5.28
2. 5.30
